# Target Of Assay: T1, recombinant human EphA5 (rhEphA5) antigen (human, UniProt P54756 25-573)
# T1 construct: also called human EphA5 (R and D systems, Cat. No. 3036-A5); recombinant EphA5
# T1 sequence (P54756 25-573 limits assumed): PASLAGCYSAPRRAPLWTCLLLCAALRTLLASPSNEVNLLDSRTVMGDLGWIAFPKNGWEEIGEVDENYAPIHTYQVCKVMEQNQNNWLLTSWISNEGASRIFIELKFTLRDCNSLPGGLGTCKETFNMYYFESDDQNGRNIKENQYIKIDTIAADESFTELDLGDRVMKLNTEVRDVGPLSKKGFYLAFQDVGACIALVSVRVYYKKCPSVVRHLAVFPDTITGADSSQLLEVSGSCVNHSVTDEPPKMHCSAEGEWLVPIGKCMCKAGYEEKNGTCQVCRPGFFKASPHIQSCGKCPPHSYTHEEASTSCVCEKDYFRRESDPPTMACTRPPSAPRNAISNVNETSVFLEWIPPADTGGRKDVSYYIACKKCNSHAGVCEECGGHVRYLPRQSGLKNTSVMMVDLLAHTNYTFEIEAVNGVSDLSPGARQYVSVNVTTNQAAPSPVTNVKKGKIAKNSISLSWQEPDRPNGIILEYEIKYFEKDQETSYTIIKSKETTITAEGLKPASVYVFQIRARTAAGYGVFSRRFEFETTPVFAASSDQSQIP
# Assay Procedure: SPR single-cycle kinetics (Biacore T200), IgG from HEK supernatant captured on anti-human IgG CM5 chip, rhEphA5 as analyte, 1:1 fit
Provide the reported pKd of each item.
The value called pKd is obtained by taking minus log10 of the concentration in mol/L.

Documented pKd of VH6/VK4 humanized 11C12 antibody (antibody, human IgG1, kappa, V domains shown, Human IgG1/kappa; tested as HEK293 EBNA supernatant; also called H6K4) VH: EVQLVESGGGLVQPGGSLKLSCAASGFTFSTFGIHWVRQAPGKGLEWVASISGASTTIYYADSVKGRFTISRDNSKNTLYLQMNSLRAEDTAVYYCARYGTSFPYGLDYWGQGTLVTVSS VL: DIVMTQSPDSLAVSLGERATINCKSSQSVDYDGDSYMNWYQQKPGKAPKLLIYGASNLESGIPDRFSGSGSGTDFTLTISRLEPEDAASYYCQQSNEDPFTFGQGTKLEIKR : 8.01

Documented pKd of VH4/VK2 humanized 11C12 antibody (antibody, human IgG1, kappa, V domains shown, Human IgG1/kappa; tested as HEK293 EBNA supernatant; also called H4K2) VH: EVQLVESGGGLVQPGGSLKLSCAASGFTFSTFGIHWVRQAPGKGLEWVAYISGASTTIYYADTVKGRFTISRDNSKNTLYLQMNSLRAEDTAVYYCARYGTSFPYGLDYWGQGTLVTVSS VL: DIVMTQSPDSLAVSLGERATINCKASQSVDYDGDSYMNWYQQKPGKAPKLLIYGASNLESGIPDRFSGSGSGTDFTLTISRLEPEDAASYYCQQSNEDPFTFGQGTKLEIKR : 9.07

Documented pKd of VH0/VK1 (antibody, human IgG1, kappa, V domains shown, tested as HEK supernatant; also called control antibody (chimeric heavy chain with humanized VK1 light chain)) VH: EVTLKESGGGLVQPGGSRKLSCAASGFTFSTFGIHWVRQAPEKGLEWVAYISGASTTIYYADTVKGRFTISRDNPKNTLFLQMTSLRSEDTAMYYCARYGTSFPYGLDYWGQGTSVTVSS VL: DIVMTQSPGSLAVSLGERATINCKASQSVDYDGDSYMNWYQQKPGKAPKLLIYGASNLESGIPDRFSGSGSGTDFTLTISRLEEEDAASYYCQQSNEDPFTFGQGTKLEIKR : 8.95
